Data origin: the supplement of paper PMC10065799

EXPERIMENTAL SYSTEM: FGFR1 (UniProt P11362)
Sequence (P11362 whole entry, looked up): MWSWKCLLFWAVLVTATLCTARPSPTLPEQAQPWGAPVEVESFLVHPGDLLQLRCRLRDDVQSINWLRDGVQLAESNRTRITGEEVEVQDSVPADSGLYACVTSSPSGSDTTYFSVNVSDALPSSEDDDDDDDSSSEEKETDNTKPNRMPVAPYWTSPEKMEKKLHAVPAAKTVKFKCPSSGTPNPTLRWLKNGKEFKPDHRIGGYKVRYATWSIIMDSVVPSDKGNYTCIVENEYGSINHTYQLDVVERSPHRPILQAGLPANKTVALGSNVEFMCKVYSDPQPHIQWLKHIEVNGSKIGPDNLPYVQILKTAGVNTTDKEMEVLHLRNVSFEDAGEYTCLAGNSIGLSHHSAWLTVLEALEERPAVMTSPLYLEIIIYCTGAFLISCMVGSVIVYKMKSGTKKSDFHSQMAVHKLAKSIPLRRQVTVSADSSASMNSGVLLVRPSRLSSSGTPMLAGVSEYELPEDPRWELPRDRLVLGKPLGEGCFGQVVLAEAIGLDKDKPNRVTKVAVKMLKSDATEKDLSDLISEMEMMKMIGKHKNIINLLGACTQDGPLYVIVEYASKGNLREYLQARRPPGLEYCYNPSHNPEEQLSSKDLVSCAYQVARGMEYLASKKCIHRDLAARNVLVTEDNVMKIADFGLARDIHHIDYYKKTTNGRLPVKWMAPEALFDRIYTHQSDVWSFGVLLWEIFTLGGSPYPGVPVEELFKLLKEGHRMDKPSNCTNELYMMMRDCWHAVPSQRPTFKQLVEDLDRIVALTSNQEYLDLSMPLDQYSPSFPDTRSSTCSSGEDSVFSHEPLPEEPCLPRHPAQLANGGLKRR
ASSAY REMARKS: phosphorylation enrichment, bacterial display (enrichment ratio); higher = better substrate or ligand; peptides without Tyr show the background;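 further: 11-residue human phosphosite peptides and single-mutation variants displayed on the E. coli surface, counted by deep sequencing, each peptide's frequency after selection divided by its frequency in the unselected input library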;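 further: frequency after pTyr selection over input frequency; kinase dosed for 20-30% of maximal phosphorylation in three min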
Assign class by phosphorylation enrichment: not lower than 0.6 means 1; lower than 0.6 means -1.

1. RHPLDYLRQYP [NARS2_Y138_E137D]: -1
2. IFHLSYIHNCE [PDE6B_Y227_L228I_YF]: -1
3. FDGKEYDPVEA [MAPRE2_Y167_YF]: -1
4. KHCEDYVCSFN [DSC1_Y846_YF]: -1
5. NLAAQYTTVGR [SGSH_Y240_D235N]: -1
6. FSNPAYFVLEG [INPPL1_Y986_N982S_YF]: 1
7. TYGQVYKGPHV [TNIK_Y40_R43P]: -1
8. CTTIHCNYMCN [TP53_Y234_Y234C]: -1
9. TWQSMYGCDVG [HLA-B_Y123_L119W]: -1
10. AKLVQYFMEHH [PTPN11_Y80_E76K_YF]: -1
11. DAGTDYVGISR [FREM2_Y2061]: -1
12. PPSELYFVKVD [TERT_Y707_P704S]: 1
13. CTTIHYSFMCN [TP53_Y234_N235S_YF]: 1
14. LFHENYNAGTF [CFI_Y421_I416L_YF]: 1
15. ETKKQYDSFTF [TMED3_Y85_YF]: -1
16. KLRMESLSLMH [NCKIPSD_Y660_Y660S]: -1
17. GFSRHYEDGFP [CTNND1_Y217_YF]: -1
18. FCRHNYGVGES [HLA-DRB1_Y112_V115G_YF]: -1
19. TQNAVYSAANF [DDX5_Y535_G533A_YF]: -1
20. IGEGTYRTVFK [CDK5_Y15_G16R]: -1
21. ELTTCYRKKCC [CCBE1_Y70]: -1
22. VNFQPYRKHKF [TEX37_Y28_D24N_YF]: -1
23. ARGMEYLASKK [FGFR1_Y613]: -1
24. ALECLYHREKR [TEKT5_Y195]: -1
25. DIDKIYIRTGI [PIK3CA_Y355_V356I]: -1
26. CTTIHYNYVCN [TP53_Y234_M237V]: 1
27. CPPELYALMSD [ZAP70_Y569]: 1
28. TGGLEYIVPLM [CLCN4_Y548]: 1
29. KMMGRYEMYAR [UPB1_Y362_T359M]: -1
30. LWQSIYNLEAE [TNNT2_Y251]: 1
31. EAVSIYQFFGQ [CBLC_Y402_H405Y_YF]: 1
32. ADMETYLLEKS [MYH7_Y266_I263M]: -1
33. LARDMHDKEFF [MET_Y1230_Y1230H_YF]: 1
34. EVEFEYPFRLH [SYP_Y73]: -1
35. LGSNTYPFLLT [SAG_Y120]: 1
36. CCNHPYRINGA [CHD7_Y1256_L1257R]: -1
37. PATINYPFEKG [NDUFS8_Y84]: -1
38. RENGPYFTSFP [GDAP2_Y487_YF]: 1
39. RLMLQYDAVVN [SLC25A32_Y152]: -1
40. FFTEEYVRAHP [DOCK2_Y1555_D1558A]: -1
41. FARNSYVAGQY [G6PD_Y107]: -1
42. KSVLVYRNGDP [DCDC2_Y22]: -1
43. AYRHGYFDEEM [PLEC_Y2971_R2969H]: 1
44. KEAQVYQAFRL [SUCLG2_Y343_K347R]: 1
45. RQQQDYWLIDV [ANPEP_Y600]: 1
46. KVGRVYLFLQP [ITGA2B_Y360_E355K]: -1
47. RHSGSYFVTSV [APC_Y2838_L2839F]: -1
48. SFCFRYRCAAR [SUMF1_Y344_YF]: -1
49. FTDPFYDFEIE [ZC3H18_Y372_A368T_YF]: 1
50. LNARHYGGLTG [PGAM2_Y92_E89A]: -1
51. AEQEEYSAMRD [NRAS_Y64_G60E]: -1
